Recorded values, source a melting point compilation (Tetko et al.; mined from patent text by program, amines drawn as free bases though some values may be those of a salt).

OBSERVABLE: melting point

{"COMPOUND": "CCCCN1CCC(CNC(=O)c2ccc(N)n3cc(Cl)nc23)CC1", "melting point": "113 °C"}
{"COMPOUND": "COc1cc(OC)c2c(=O)[nH]c(-c3ccc(OCC(N)=O)cc3)nc2c1", "melting point": "309 to 311 °C"}
{"COMPOUND": "Cc1c(C)c2c(c(C)c1O)SC(C)O2 (centres undefined)", "melting point": "125 to 127 °C"}
{"COMPOUND": "Cc1nc(=O)[nH]c2cc3c(cc12)OCO3", "melting point": "310 to 312 °C"}
{"COMPOUND": "Cc1[nH]cnc1C=CC(=O)c1cn2c3c(cccc13)CCC2", "melting point": "108 to 110 °C"}

What measured melting point goes with O=C(O)c1cccc(CCc2n[nH]c3c2c(=O)n(-c2ccccc2)c2ncccc32)c1 ?
159 to 161 °C

Dear colleague, I am looking for the recorded melting point of the following compound: [N-]=[N+]=Nc1ccc(C(=O)OCCOC(=O)C[C@@H](C(=O)O)n2c3ccccc3c3ccccc32)cc1
55 °C

// melting point lookup, key: CC(=O)NCC1CC(c2ccc(F)c(F)c2)=NO1 (centres undefined)
136 to 137 °C

Reported melting point, compound CCC1N=C(c2ccccc2Cl)c2cc(CCC(=O)OC)sc2-n2c(C)nnc21 (centres undefined) : ____
126 to 127 °C

Dear colleague, I am looking for the recorded melting point of the following compound: Cc1nnc2ccc(-c3ccc(C(F)(F)F)cc3)nn12
199 to 201 °C

melting point lookup needed for CCc1nc2c(C(F)(F)F)cccc2c(O)c1C(=O)O , thanks.
174 °C

Name the reported melting point value associated with the compound CC(C)Oc1cc(/C=C/C(=O)O)n(Cc2ncc(C(F)(F)F)cc2Cl)n1
130 to 132 °C

Fill in: melting point of CNC(=O)[C@@H](NC(=O)[C@@H](CC(C)C)C(C(=O)O)C(=O)O)C(C)(C)C is ___
101 °C

If you can, please state the reported melting point value of CCOC(=O)c1sc(Cn2cc(Cl)cnc2=O)nc1C .
169 to 171 °C
